Taken from patent US10259810B2.

- studyTarget: ΔF508-CFTR (Homo sapiens, UniProt P13569, DEL508-508)
- Construct: host or cells: CFBE41o-, doxycycline-inducible
- Sequence (P13569 with tags, fused parts or gaps DEL508-508): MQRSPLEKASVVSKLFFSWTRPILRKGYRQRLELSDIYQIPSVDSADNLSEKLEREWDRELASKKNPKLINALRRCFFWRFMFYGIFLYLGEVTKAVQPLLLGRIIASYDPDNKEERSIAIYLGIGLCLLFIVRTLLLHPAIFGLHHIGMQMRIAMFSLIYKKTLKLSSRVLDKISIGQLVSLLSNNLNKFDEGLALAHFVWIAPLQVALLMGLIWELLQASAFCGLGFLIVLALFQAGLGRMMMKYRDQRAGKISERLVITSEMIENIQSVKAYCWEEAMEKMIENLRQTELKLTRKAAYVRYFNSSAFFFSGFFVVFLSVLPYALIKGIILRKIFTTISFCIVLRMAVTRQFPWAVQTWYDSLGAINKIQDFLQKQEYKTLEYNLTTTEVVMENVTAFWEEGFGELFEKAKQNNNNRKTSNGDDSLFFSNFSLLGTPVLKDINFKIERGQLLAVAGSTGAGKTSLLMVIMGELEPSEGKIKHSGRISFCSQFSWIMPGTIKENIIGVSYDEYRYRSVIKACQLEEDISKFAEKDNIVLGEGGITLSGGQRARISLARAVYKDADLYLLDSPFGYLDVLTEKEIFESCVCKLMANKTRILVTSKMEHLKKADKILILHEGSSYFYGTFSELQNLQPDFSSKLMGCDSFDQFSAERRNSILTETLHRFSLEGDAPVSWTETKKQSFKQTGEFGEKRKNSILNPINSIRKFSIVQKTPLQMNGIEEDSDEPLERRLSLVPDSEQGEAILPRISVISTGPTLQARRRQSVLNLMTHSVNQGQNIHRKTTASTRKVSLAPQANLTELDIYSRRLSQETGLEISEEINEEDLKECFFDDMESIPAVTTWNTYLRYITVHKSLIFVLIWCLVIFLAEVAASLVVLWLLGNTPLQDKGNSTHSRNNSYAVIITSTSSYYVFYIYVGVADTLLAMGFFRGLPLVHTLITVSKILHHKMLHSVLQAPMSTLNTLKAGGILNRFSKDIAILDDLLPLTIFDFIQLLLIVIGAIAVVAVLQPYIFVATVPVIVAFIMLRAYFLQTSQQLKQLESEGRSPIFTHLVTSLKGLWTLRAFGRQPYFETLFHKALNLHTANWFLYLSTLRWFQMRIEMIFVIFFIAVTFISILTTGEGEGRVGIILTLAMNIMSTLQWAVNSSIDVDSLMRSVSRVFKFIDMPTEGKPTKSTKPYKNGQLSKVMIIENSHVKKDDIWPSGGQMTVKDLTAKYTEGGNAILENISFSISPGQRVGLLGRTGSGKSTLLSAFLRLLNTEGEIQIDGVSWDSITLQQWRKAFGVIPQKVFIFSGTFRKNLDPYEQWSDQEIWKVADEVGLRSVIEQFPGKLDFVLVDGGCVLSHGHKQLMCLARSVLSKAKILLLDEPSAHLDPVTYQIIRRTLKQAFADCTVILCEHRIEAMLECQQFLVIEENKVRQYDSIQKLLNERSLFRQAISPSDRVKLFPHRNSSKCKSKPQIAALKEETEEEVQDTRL
- method: CFTR cell surface levels using HRP-tagged ΔF508-CFTR expressing CFBE cells, in the presence of a co-corrector
- Assay type: cell-based
- condition: HRP-tagged ΔF508-CFTR CFBE cells, in the presence of 3 μM co-corrector; read-out: EC50
# EC50 listing for each entry below
API: value field is a number in nM; no unit string.

Cc1cc(-n2nc(C3CCC3)c3c(N4CCC(N5CCOCC5)CC4)cc(C(=O)NS(C)(=O)=O)nc32)ccc1F [Compound 514] ... 97.1
CC(C)c1nn(-c2ccc(F)c(F)c2)c2nc(C(=O)NS(C)(=O)=O)cc(-c3ccc(N4CCOCC4)cc3)c12 [Compound 127] ... 252
CN(C)S(=O)(=O)NC(=O)c1cc(N2CCC(N3CCOCC3)CC2)c2c(C3CCC3)nn(-c3ccc(C(F)(F)F)cc3)c2n1 [Compound 500] ... 84.2
CC(C)c1nn(-c2ccc(F)cc2)c2nc(C(=O)NS(C)(=O)=O)cc(OCC3(C)CC(F)(F)C3)c12 [Compound 306] ... 82.4
COCC1CCN(c2cc(C(=O)NS(=O)(=O)N3CCOCC3)nc3c2c(C2CCC2)nn3-c2ccccc2)CC1 [Compound 396] ... 55

*Q* Return the recorded EC50 value; entry: CC(C)c1nn(-c2ccc(F)cc2)c2nc(C(=O)NS(C)(=O)=O)cc(N3CCC4(CCO4)CC3)c12 [Compound 177]
*A* 385

*Q* Return the recorded EC50 value; entry: COc1cccc(-n2nc(C)c3c(-c4ccc(N5CCOCC5)cc4)cc(C(=O)NS(C)(=O)=O)nc32)c1 [Compound 72]
*A* 5610

*Q* Return the recorded EC50 value; entry: CC1(S(=O)(=O)NC(=O)c2cc(N3CCC(N4CCOCC4)CC3)c3c(C4CCC4)nn(-c4ccc(F)cc4)c3n2)CC1 [Compound 508]
*A* 90.3

*Q* Return the recorded EC50 value; entry: Cc1nn(-c2ccc(F)c(F)c2)c2nc(C(=O)NS(C)(=O)=O)cc(-c3ccc(N4CCOCC4)cc3)c12 [Compound 25]
*A* 640

*Q* Return the recorded EC50 value; entry: CCCN(CC)S(=O)(=O)NC(=O)c1cc(OCC2CCOCC2)c2c(C3CCC3)nn(-c3ccccc3)c2n1 [Compound 355]
*A* 377

*Q* Return the recorded EC50 value; entry: CC(C)c1nn(-c2ccc(F)cc2)c2nc(C(=O)NS(C)(=O)=O)cc(N3CCCC(C(F)F)C3)c12 (stereo not shown) [Compound 178]
*A* 232

*Q* Return the recorded EC50 value; entry: Cc1nn(-c2cccc(OC(F)(F)F)c2)c2nc(C(=O)NS(C)(=O)=O)cc(-c3ccc(N4CCOCC4)cc3)c12 [Compound 6]
*A* 511

*Q* Return the recorded EC50 value; entry: CC(C)Oc1nn(C2CCCCC2)c2nc(C(=O)NS(=O)(=O)N(C)C)cc(-c3ccc(C(=O)N4CCN(C)CC4)cc3)c12 [Compound 423]
*A* 109
